# subjectOfTest: CLK4 (human) (UniProt Q9HAZ1)
# Sequence (Q9HAZ1 whole entry, looked up): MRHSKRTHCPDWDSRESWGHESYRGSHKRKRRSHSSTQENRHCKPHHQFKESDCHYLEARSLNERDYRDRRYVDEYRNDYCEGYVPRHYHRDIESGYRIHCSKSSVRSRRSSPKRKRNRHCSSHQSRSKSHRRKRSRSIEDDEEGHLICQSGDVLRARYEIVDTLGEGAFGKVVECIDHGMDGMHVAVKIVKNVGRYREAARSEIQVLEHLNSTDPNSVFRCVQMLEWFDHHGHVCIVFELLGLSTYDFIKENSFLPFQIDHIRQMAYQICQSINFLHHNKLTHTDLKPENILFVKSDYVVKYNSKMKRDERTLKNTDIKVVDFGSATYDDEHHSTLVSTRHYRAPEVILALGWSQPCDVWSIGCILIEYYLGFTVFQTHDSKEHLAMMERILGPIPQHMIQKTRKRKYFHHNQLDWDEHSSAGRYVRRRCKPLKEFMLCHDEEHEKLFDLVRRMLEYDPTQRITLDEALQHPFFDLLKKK
# testSummary: KINOMEscan competition binding
# conditionParameters: compound 10.0 µM
observationType: kinase still bound, per cent of control
The answer should read as a number with its unit following.

smilesNotation | subjectOfTest | kinase still bound, per cent of control
N#Cc1cc(-c2ccnc(Nc3ccc(-n4cnc(-c5cccnc5)n4)cc3)n2)cc(N2CCOCC2)c1 | CLK4 (human) (UniProt Q9HAZ1) | 7.2%
CCN1CCN(Cc2ccc(NC(=O)c3ccc(C)c(/C=C/c4cnc5[nH]ccc5c4OC)c3)cc2C(F)(F)F)CC1 | CLK4 (human) (UniProt Q9HAZ1) | 100%
CC(=O)c1c(C)c2cnc(Nc3ccc(N4CCNCC4)cn3)nc2n(C2CCCC2)c1=O | CLK4 (human) (UniProt Q9HAZ1) | 2%
CCc1nc(-c2cccc(C)c2)c(-c2ccnc(NC(=O)c3ccccc3)c2)s1 | CLK4 (human) (UniProt Q9HAZ1) | 93%

# ---- query compound ----
[ask] Name the recorded kinase still bound, per cent of control of the item COc1cc2ncnc(Nc3cccc(Cl)c3)c2cc1OC in your answer.
[reply] 37%
